B1: TPR 5TU (parent)
chain: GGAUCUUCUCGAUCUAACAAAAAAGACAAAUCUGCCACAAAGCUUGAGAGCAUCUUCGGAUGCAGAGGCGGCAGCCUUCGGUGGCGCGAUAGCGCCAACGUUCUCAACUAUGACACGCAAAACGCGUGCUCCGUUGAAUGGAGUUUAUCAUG

variants of: B1; assay: polymerase ribozyme fitness, log enrichment relative to wild type (log ratio); higher = more active; in vitro selection for triplet polymerase activity
This sample holds only a part of the variants without activity.
Task for the reader: assign each of the following variants its reported polymerase ribozyme fitness (log ratio).
Answer with the value's number alone.

Form field: reported polymerase ribozyme fitness (log ratio) of U31A U55A A147G
-0.55

And the next one, C79U A91C ?
-4.02

And the next one, G58C G83C G117C ?
-0.409

And the next one, C85G C116U ?
-1.66

And the next one, A17C A39U G58A C95A G141C ?
-2.82

And the next one, A60G A89G ?
-0.778

And the next one, A40U U55A U101C A120C ?
-0.406

And the next one, A120G A137C ?
-4.08

And the next one, U55A G58A C85A C131U ?
0.931

And the next one, A28U U55A ?
-4.13

And the next one, A16U U61G G81A ?
-1.91

And the next one, A47G G92C C114U ?
-2.53

And the next one, A47C G59A G84U G94U G124A ?
-3.56

And the next one, G50A A107U ?
-4.13

And the next one, A21C G50A C96U C125G ?
-1.98

And the next one, C93U C149U ?
-1.57

And the next one, U55A U134G ?
-1.99

And the next one, U56A G92U U102A U134C ?
-1.59

And the next one, G48A G59C C63U G86C ?
-3.98

And the next one, C129A U148G ?
-4.11

And the next one, C57U A91G ?
-2.92
